This section presents IC50 values reported for ASK1 (Homo sapiens (Human), UniProt Q99683) in the literature.
METRIC: IC50

MOLECULE | EXPERIMENTAL TARGET | METRIC | TEST RESULT
CC(C)n1cnnc1-c1cccc(NC(=O)c2cc3sc(N4CCN(C(C)(C)C)CC4)nc3cn2)n1 | ASK1 (Homo sapiens (Human), UniProt Q99683) | IC50 | 10 to 100 nM
O=C(Nc1cccc2c1OC[C@H](CF)n1cnnc1-2)c1cc(-n2cnc(C3CC3)c2)ccn1 | ASK1 (Homo sapiens (Human), UniProt Q99683) | IC50 | 4.1 nM
CCOC(=O)N1CCc2cnc(C(=O)Nc3cccc(-c4nnnn4[C@H](C)CO)n3)cc2C1 | ASK1 (Homo sapiens (Human), UniProt Q99683) | IC50 | 1 to 10 nM
COc1cc(C)c(-c2cnn(C)c2)cc1C(=O)Nc1cccc(-c2nnnn2C(C)C)n1 | ASK1 (Homo sapiens (Human), UniProt Q99683) | IC50 | 1 to 10 nM
CC(C)n1cnnc1-c1cccc(NC(=O)c2cc3sc(N4CCC4)nc3cc2F)n1 | ASK1 (Homo sapiens (Human), UniProt Q99683) | IC50 | 1 to 10 nM
CC(C)n1nnnc1-c1cccc(NC(=O)c2cc3c(cc2F)CCN(C(=O)C2CCCC2)C3)n1 | ASK1 (Homo sapiens (Human), UniProt Q99683) | IC50 | 10 to 100 nM
COCc1c[nH]c(C(=O)Nc2cccc(-c3nncn3C(C)C)n2)c1 | ASK1 (Homo sapiens (Human), UniProt Q99683) | IC50 | 7.7 nM
CC(C)n1cnnc1-c1cccc(NC(=O)c2ccc3ccccc3c2)n1 | ASK1 (Homo sapiens (Human), UniProt Q99683) | IC50 | 100 to 1000 nM
Cc1cnc(C(=O)Nc2cccc(-n3nnnc3C(C)C)n2)cc1-c1cnn(C2CC2)c1 | ASK1 (Homo sapiens (Human), UniProt Q99683) | IC50 | 10 to 100 nM
Cc1cc(F)c(C(=O)Nc2cccc3c2OCC(CO)n2cnnc2-3)cc1-n1cnc(C2CC2)c1 (stereo not drawn) | ASK1 (Homo sapiens (Human), UniProt Q99683) | IC50 | 5.7 nM
Cc1ccnc(Nc2ccc3c(c2)C(=O)N(c2cccc(-c4nncn4C(C)C)n2)CO3)n1 | ASK1 (Homo sapiens (Human), UniProt Q99683) | IC50 | 7.8 nM
CC(C)n1cnnc1-c1cccc(N2CSc3ccc(-c4cnc(C5CC5)nc4)cc3C2=O)n1 | ASK1 (Homo sapiens (Human), UniProt Q99683) | IC50 | 23.1 nM
CC(C)Oc1cnc(C(=O)Nc2cccc3c2OCCn2cnnc2-3)cc1-n1cnc(C2CC2)c1 | ASK1 (Homo sapiens (Human), UniProt Q99683) | IC50 | 5.8 nM
CC(C)n1cnnc1-c1cccc(NC(=O)c2ccc[nH]2)n1 | ASK1 (Homo sapiens (Human), UniProt Q99683) | IC50 | 11.6 nM
CC(=O)c1ccccc1-c1cc2c(s1)C(=O)N(c1cccc(-c3nncn3C3CC3)n1)C2 | ASK1 (Homo sapiens (Human), UniProt Q99683) | IC50 | 200 to 1000 nM
O=C1c2cc(-c3cccnn3)ccc2CN1c1cccc(-c2nncn2C2CC2)n1 | ASK1 (Homo sapiens (Human), UniProt Q99683) | IC50 | < 200 nM
CCOC(=O)N1CCc2ccc(C(=O)Nc3cccc(-c4nncn4C(C)C)n3)cc2C1 | ASK1 (Homo sapiens (Human), UniProt Q99683) | IC50 | 10 to 100 nM
CCOC(=O)N1CCc2cnc(C(=O)Nc3cccc(-c4nnnn4[C@@H]4CCC[C@@H]4O)n3)cc2C1 | ASK1 (Homo sapiens (Human), UniProt Q99683) | IC50 | 10 to 100 nM
